Measured on: Lysine-specific demethylase 5B (Homo sapiens) (UniProt Q9UGL1)
Sequence (Q9UGL1 whole entry, looked up): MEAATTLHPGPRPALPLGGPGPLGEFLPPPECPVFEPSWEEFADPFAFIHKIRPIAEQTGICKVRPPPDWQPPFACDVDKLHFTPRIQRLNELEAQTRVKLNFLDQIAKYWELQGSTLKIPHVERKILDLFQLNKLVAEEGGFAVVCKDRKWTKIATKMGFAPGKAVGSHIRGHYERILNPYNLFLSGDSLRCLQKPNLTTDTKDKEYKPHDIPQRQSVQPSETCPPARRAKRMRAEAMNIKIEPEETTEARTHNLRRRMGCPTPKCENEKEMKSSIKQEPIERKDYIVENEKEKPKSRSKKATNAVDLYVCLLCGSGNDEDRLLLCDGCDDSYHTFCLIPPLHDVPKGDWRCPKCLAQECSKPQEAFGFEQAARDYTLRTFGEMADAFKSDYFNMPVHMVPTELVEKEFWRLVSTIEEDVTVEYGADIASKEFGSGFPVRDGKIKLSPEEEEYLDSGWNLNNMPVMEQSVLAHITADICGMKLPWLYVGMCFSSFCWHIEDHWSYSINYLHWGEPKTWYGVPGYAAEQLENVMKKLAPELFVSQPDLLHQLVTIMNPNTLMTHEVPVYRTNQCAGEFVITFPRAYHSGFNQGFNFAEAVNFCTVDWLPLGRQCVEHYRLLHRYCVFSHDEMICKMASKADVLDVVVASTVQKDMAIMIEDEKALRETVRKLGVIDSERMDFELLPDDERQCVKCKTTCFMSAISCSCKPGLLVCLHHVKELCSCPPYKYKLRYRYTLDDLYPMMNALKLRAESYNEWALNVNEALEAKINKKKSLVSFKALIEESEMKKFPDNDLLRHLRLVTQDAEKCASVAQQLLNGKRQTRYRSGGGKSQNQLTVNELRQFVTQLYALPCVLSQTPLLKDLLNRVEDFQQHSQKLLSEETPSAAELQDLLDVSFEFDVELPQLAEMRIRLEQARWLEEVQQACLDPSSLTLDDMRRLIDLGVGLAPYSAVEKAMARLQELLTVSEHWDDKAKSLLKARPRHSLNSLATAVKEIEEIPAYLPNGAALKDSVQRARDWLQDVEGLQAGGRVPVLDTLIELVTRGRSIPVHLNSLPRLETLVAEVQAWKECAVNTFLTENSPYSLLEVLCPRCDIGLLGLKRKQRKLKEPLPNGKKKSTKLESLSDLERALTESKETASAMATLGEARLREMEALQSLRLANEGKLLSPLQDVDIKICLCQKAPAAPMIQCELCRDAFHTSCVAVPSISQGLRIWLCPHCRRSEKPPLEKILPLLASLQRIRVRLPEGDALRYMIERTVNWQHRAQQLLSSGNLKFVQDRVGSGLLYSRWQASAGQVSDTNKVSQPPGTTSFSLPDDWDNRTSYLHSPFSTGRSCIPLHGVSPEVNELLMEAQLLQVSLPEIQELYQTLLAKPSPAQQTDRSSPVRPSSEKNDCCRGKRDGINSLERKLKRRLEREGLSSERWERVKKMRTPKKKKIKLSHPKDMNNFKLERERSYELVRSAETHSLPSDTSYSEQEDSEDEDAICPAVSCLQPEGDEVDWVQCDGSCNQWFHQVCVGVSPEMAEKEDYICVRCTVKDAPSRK
Assay text: Primary screen for KDM5B Histone Demethylases FDH-coupled qHTS; note: nearly all actives have a fitted effect of over 70% in size
Assay setup: FDH-coupled NADH fluorescence; series mostly up to 57.7 µM
Hit rate of the full screen: of about 220,000 compounds, about 5,700 (2.6%) were called active. About 18% were inconclusive and are not listed. Calls come from the whole dose curve; as a rule, active = well fitted inhibition curve with a large enough effect; inconclusive = small, poorly fitted or top-dose-only effect; inactive = no such curve, though single readings can be large or run the other way. The sample as a whole holds a higher share of actives than the screen did.
// allowed return values: active, inactive

{"Compound": "Cc1cnc(CC2CCN(C(=O)c3cccc4[nH]ccc34)CC2)n1CC1CC1", "Assigned class": "active"}

Just curious, what result did `Cc1nc(CCNS(=O)(=O)c2cccnc2)no1` get here?
inactive

Field entry: `Cc1nc(CCNc2nccc(-c3cccnc3)n2)nc2c1CCCC2`
active

Now the same for `O=C(CSc1nc(-c2ccc(F)cc2)cc(C(F)(F)F)n1)NC1CCCC1`
inactive

Lookup `CC(C)CN[C@H]1[C@H](O)[C@H](O)C[C@@H]1c1ccc(N2CCOCC2)nc1`
active

Another compound to look at: `N#Cc1cccc(Oc2cccc3cccnc23)c1C#N`
inactive

----------
Measured on: Lysine-specific demethylase 5B (Homo sapiens) (UniProt Q9UGL1)
Assay text: Primary screen for KDM5B Histone Demethylases FDH-coupled qHTS; note: nearly all actives have a fitted effect of over 70% in size; note: potency is the fitted concentration of half-maximal effect
Assay setup: FDH-coupled NADH fluorescence; series mostly up to 57.7 µM
Out of some 220,000 compounds screened, about 5,700 (2.6%) were called active. About 18% were inconclusive and are not listed. Only a selection was taken, and actives are over-represented in it overall.
Observed property: Potency

In the examples that follow, each entry is paired with its recorded Potency.
{"Molecule": "COCC(=O)Nc1ccc2c(c1)CN(Cc1ccccc1F)C(=O)C(C)O2 (stereo unspecified)", "Potency": "inactive"}
{"Molecule": "COCCn1c(C(=O)NCc2ccncc2)nc2ccccc2c1=O", "Potency": "inactive"}
{"Molecule": "COc1ccc(-c2ccc3ncn(C4CC4)c(=O)c3n2)cn1", "Potency": "39.8 µM (active)"}
{"Molecule": "COc1cccc(CN2Cc3nc(-c4cc(F)cc(F)c4)ccc3OCC2=O)c1", "Potency": "inactive"}
{"Molecule": "COc1cccc(C(=O)Nc2ccc3c(c2)CN(Cc2ccc(OC)cc2OC)C(=O)CO3)c1", "Potency": "inactive"}

Turning now to a further molecule:
I am curious: what Potency value has been reported for `COc1ccc(Nc2cnc3ccc(-c4ccc(OC)nc4)nn23)cc1` ?
inactive

----------
Measured on: Lysine-specific demethylase 5B (Homo sapiens) (UniProt Q9UGL1)
Assay text: Primary screen for KDM5B Histone Demethylases FDH-coupled qHTS; note: nearly all actives have a fitted effect of over 70% in size
Assay setup: FDH-coupled NADH fluorescence; series mostly up to 57.7 µM
The whole screen tested about 220,000 compounds, of which about 5,700 (2.6%) were called active. About 18% were inconclusive and are not listed. Calls come from the whole dose curve; as a rule, active = well fitted inhibition curve with a large enough effect; inconclusive = small, poorly fitted or top-dose-only effect; inactive = no such curve, though single readings can be large or run the other way. The list comes from a sample in which actives are over-represented; it also holds close analogues and randomly drawn compounds.
Your response should consist of one outcome taken from active, inactive

Use the examples below as a reference point.
{"Compound": "COc1ccc(Nc2cc(C(=O)N3CCOCC3)c3ccccc3n2)cc1", "Assigned class": "inactive"}
{"Compound": "COc1cccc(NC(=O)C2(C#N)CCCC2)c1", "Assigned class": "inactive"}
{"Compound": "CN1C(=O)CC(C(=O)O)C12CCN(CCc1ccccn1)CC2 (stereo unspecified)", "Assigned class": "inactive"}
{"Compound": "COc1ccc(NC(=O)C2(C)CN(C)Cc3ccc(Nc4cccc(OC)c4)nc32)cc1 (stereo unspecified)", "Assigned class": "active"}
{"Compound": "Cc1ccc(C(=O)N2CCN(c3oc(C4CC4)nc3C#N)CC2)c(C)c1", "Assigned class": "inactive"}

Any idea what this test logged for `COCCn1ccc2cc(C(=O)Nc3ccc4c(c3)C(=O)N3CCC[C@H]3C(=O)N4)ccc21` ?
inactive

Record: `COc1ccc(NC(=O)c2cnc3ccccc3n2)c(OC)c1`
inactive

And then O=C1CC(c2nc(-c3ccc(Oc4ccccc4)cc3)no2)CN1c1ccccc1 (stereo unspecified) , what is it?
inactive

Follow-up entry: `Cc1ccc2nc(COc3ccc(NC(=O)COc4ccccc4F)cc3)cc(=O)n2c1`
inactive

Same for `O=C1Nc2ccc(Br)cc2C(=O)N2CCN(C(=O)C3CCCCC3)C[C@H]12`
inactive

Would you kindly repeat that for CCOC(=O)C(C)Oc1cccn2c(=O)c(-c3cc(C)n(-c4cccc(F)c4)n3)c(C)nc12 (stereo unspecified) ?
active

Again, but for `Cc1ccc(N2CCN(C(=O)CCc3c(C)nc4c(c3C)c(=O)n(C)c(=O)n4C)CC2)c(C)c1`
inactive

Next record, please: `O=C(CCc1ccccc1)NCCn1cccc1-c1nc(-c2ccc3c(c2)OCO3)no1`
active

Same again, this time with CC(OC(=O)CCCc1c[nH]c2ccccc12)C(=O)NC(N)=O (stereo unspecified)
inactive

Consider next the compound `Cc1ccc2c(CN3CCN(CCc4ccccn4)CC3)cc(=O)oc2c1` in the same way.
inactive

Another compound to look at: O=C(OC1CCOC1=O)c1ccccc1SC1CCOC1=O (stereo unspecified)
inactive

And for `COC(=O)COc1cccn2c(=O)c(-c3cc(C)n(-c4ccc(C)cc4C)n3)c(C)nc12` ?
active

Similarly, `COc1ccc(NC(=O)Cn2cccc2-c2nc(-c3ccc4c(c3)OCO4)no2)c(OC)c1` ?
inactive

One more compound: `Cc1ccc(NC(=O)Cn2cccc2-c2nc(-c3ccc4c(c3)OCO4)no2)cc1Cl`
inactive

Ok, now `O=C(c1cccc(Br)c1)N1CCN(C2=NS(=O)(=O)c3ccccc32)CC1`
inactive

Can you handle `Cc1ccnc(N2CC[C@@H]3[C@@H](CCC(=O)N3CCc3ccccn3)C2)n1` next?
active

----------
Measured on: Lysine-specific demethylase 5B (Homo sapiens) (UniProt Q9UGL1)
Assay text: Primary screen for KDM5B Histone Demethylases FDH-coupled qHTS; note: nearly all actives have a fitted effect of over 70% in size
Assay setup: FDH-coupled NADH fluorescence; series mostly up to 57.7 µM
Hit rate of the full screen: of about 220,000 compounds, about 5,700 (2.6%) were called active. Not shown: some 18% with an inconclusive outcome. Calls come from the whole dose curve; as a rule, active = well fitted inhibition curve with a large enough effect; inconclusive = small, poorly fitted or top-dose-only effect; inactive = no such curve, though single readings can be large or run the other way. Only a selection was taken, and actives are over-represented in it overall.
Please reply with one of these outcomes: active, inactive

{"Molecule": "CN(C)CCN(C)c1ccc(-c2nc(-c3ccccc3F)no2)cn1", "Assigned class": "active"}
{"Molecule": "COc1ccc(-c2cc3c(=O)n(CCNC(=O)c4ccc(OC)cc4OC)ccn3n2)cc1", "Assigned class": "active"}
{"Molecule": "CCC(=O)c1ccc(OC(=O)c2cc3ccccc3oc2=O)cc1", "Assigned class": "inactive"}
{"Molecule": "CN(Cc1nnc(-c2ccc(Br)s2)o1)C1CCCC1", "Assigned class": "inactive"}
{"Molecule": "COc1ccc(NC(=O)O[C@@H]2CO[C@H]3[C@@H]2OC[C@@H]3NC(=O)C2CCCCC2)cc1", "Assigned class": "inactive"}

What call does the record list for `CCCNc1ccc2nnc(C)n2n1` ?
inactive

Input `CC(C)(C)c1ccnc(N[C@H]2CO[C@H]3[C@@H]2OC[C@@H]3NC(=O)CC2(CC(=O)O)CCCC2)n1`
inactive

Request: `CC(C)CNc1ccc2nnc(-c3ccccn3)n2n1`
active

Also `CN(CCc1cn[nH]c1)c1ccc(-c2nc(-c3ccccc3F)no2)cn1` , if possible.
active

// next record `CC(C)(C)c1ccnc(N[C@H]2CO[C@H]3[C@@H]2OC[C@H]3OC(=O)Nc2cccc(C(F)(F)F)c2)n1`
inactive

Then this molecule: `CCOc1ccc(-c2cc3c(=O)n(CCNC(=O)c4ccc(OC)cc4C)ccn3n2)cc1`
active

Moving on to the next molecule: `CCOc1ccc(NC(=O)CN(C)C(=O)Cn2c(=O)cnc3ccccc32)cc1OCC`
inactive

----------
Measured on: Lysine-specific demethylase 5B (Homo sapiens) (UniProt Q9UGL1)
Assay text: Primary screen for KDM5B Histone Demethylases FDH-coupled qHTS; note: nearly all actives have a fitted effect of over 70% in size
Assay setup: FDH-coupled NADH fluorescence (FDH is formaldehyde dehydrogenase); series mostly up to 57.7 µM
Among all 220,000 compounds or so, about 5,700 (2.6%) were called active. Not shown: some 18% with an inconclusive outcome. Calls come from the whole dose curve; as a rule, active = well fitted inhibition curve with a large enough effect; inconclusive = small, poorly fitted or top-dose-only effect; inactive = no such curve, though single readings can be large or run the other way. The sample holds actives, similar compounds and a random draw of the others, so the mix is not that of the screen.
Write down one outcome, taken from y = active, n = inactive

Consider the worked cases shown below.
{"Compound": "COc1ccc(C(=O)N[C@H](C(=O)NCc2ccccc2)C(C)C)cc1", "Assigned class": "n"}
{"Compound": "COc1ccc2c(COC(=O)c3cc4ccccc4cc3O)cc(=O)oc2c1", "Assigned class": "n"}
{"Compound": "N#Cc1cccc(Cn2c(=O)c3c(ncn3C3CCCC3)n(Cc3ccccc3)c2=O)c1", "Assigned class": "n"}
{"Compound": "Cc1nccnc1N1CCC(c2nnc(CN3CCCC3)n2C)CC1", "Assigned class": "n"}
{"Compound": "O=C(C1CCCC1)N1Cc2ccccc2CC2(CCCCN2CC2CCNCC2)C1 (stereo not drawn)", "Assigned class": "n"}

How was `COc1cccc(-c2nc3ccc(-c4ccc5c(c4)OCO5)cc3o2)c1OC` classified in this test?
n

Moving on to the next compound: `CC(=O)N1CCN(c2cc(-c3noc([C@@H]4CCCN4Cc4ccccc4)n3)ccn2)CC1`
y

Lookup `O=C(c1cc2cccnn2n1)N1CCOCC1`
y

Next compound: `Cc1csc(SCc2cc(Cl)c3c(c2)OCCO3)n1`
n

Okay, and `N#Cc1ccc(CCC(=O)Nc2ccc3ccccc3n2)cc1` ?
n

What about `COCCOc1ccc(-c2noc([C@@H]3CCCN3Cc3cccnc3)n2)cn1` ?
n

# credit: PubChem BioAssay AID1347165
